assay: Oral bioavailability in Famotidine-pretreated Sprague-Dawley rat at 10 mg/kg measured for 24 hrs by UPLC-MS/MS analysis; assay type: ADME, organism-based; details: in vivo
reported.property: bioavailability (%)
I only need the number, in %, no unit after it.

Using known records, supply bioavailability for [2H]C([2H])([2H])NC(=O)c1cnc(NC(=O)C2CC2)cc1Nc1cccc(-c2nnn(C)n2)c1OC 15.4

* * *

assay: physchem; settings: aqueous buffer, pH 1
Description: Solubility of compound in aqueous buffer at pH 1 at 25 degreeC by reversed phase-HPLC analysis
# cutoff 4 µg/mL applies to solubility; >= gives met, < gives not met

Check if solubility >= 4 µg/mL (inclusive). Item: [2H]C([2H])([2H])NC(=O)c1cn(COP(=O)(O)O)/c(=N/C(=O)C2CC2)cc1Nc1cccc(-c2nnn(C)n2)c1OC met

Record [2H]C([2H])([2H])NC(=O)c1cn(COC(=O)c2ccc(COP(=O)(O)O)cc2)/c(=N/C(=O)C2CC2)cc1Nc1cccc(-c2nnn(C)n2)c1OC ; criterion: solubility no lower than 4 µg/mL. Met? not met

Determine whether measured solubility meets or exceeds 4 µg/mL for CNCC(=O)OCc1cccnc1N(C)C(=O)OCn1cc(C(=O)NC)c(Nc2cccc(-c3nnn(C)n3)c2OC)c/c1=N\C(=O)C1CC1.Cl met

hey, is solubility for this one >= 4 µg/mL? [2H]C([2H])([2H])NC(=O)c1cn(COP(=O)([O-])[O-])/c(=N/C(=O)C2CC2)cc1Nc1cccc(-c2nnn(C)n2)c1OC.[Na+].[Na+] met

Given the entry NC(CO)(CO)CO.[2H]C([2H])([2H])NC(=O)c1cn(COP(=O)(O)O)/c(=N/C(=O)C2CC2)cc1Nc1cccc(-c2nnn(C)n2)c1OC , answer whether its solubility meets or surpasses 4 µg/mL. not met

solubility >= 4 µg/mL for [2H]C([2H])([2H])NC(=O)c1cnc(NC(=O)C2CC2)cc1Nc1cccc(-c2nnn(C)n2)c1OC ? met

Does the reported solubility for [2H]C([2H])([2H])NC(=O)c1cn(COC(=O)c2ccc(OP(=O)(O)O)c(OC)c2)/c(=N/C(=O)C2CC2)cc1Nc1cccc(-c2nnn(C)n2)c1OC fall at or above the 4 µg/mL mark? not met

Kindly determine if solubility recorded for [2H]C([2H])([2H])NC(=O)c1cn(COC(=O)CC(C)(C)c2c(C)cc(C)cc2OP(=O)(O)O)/c(=N/C(=O)C2CC2)cc1Nc1cccc(-c2nnn(C)n2)c1OC is above or exactly 4 µg/mL. met

* * *

experiment: AUC (total) in Sprague-Dawley rat at 10 mg/kg, po measured for 24 hrs by UPLC-MS/MS analysis; assay type: ADME, organism-based; conditions: in vivo
reported.property: AUC at 24 h (µM·h)
Respond with the bare value in µM·h.

// Input: [2H]C([2H])([2H])NC(=O)c1cnc(NC(=O)C2CC2)cc1Nc1cccc(-c2nnn(C)n2)c1OC . Output its AUC at 24 h only. 18.4

* * *

test: Oral bioavailability in mouse; format: ADME, organism-based; conditions: in vivo
reported.property: bioavailability (%)
Value expressed in %; do not type the unit.

Please report the measured bioavailability for [2H]C([2H])([2H])NC(=O)c1cnc(NC(=O)C2CC2)cc1Nc1cccc(-c2nnn(C)n2)c1OC 100

* * *

experiment: Chemical stability of compound in phosphate buffer at pH 6.5 at 37 degreeC assessed as half life measured for 24 hrs by reversed phase-HPLC analysis; assay type: physicochemical
half-life vs 70 h: at or above is MET, below is NOT MET.

Kindly determine if half-life recorded for [2H]C([2H])([2H])NC(=O)c1cn(COC(=O)c2ccc(OP(=O)(O)O)c(OC)c2)/c(=N/C(=O)C2CC2)cc1Nc1cccc(-c2nnn(C)n2)c1OC is above or exactly 70 h. MET

Determine whether measured half-life meets or exceeds 70 h for CNCC(=O)OCc1cccnc1N(C)C(=O)OCn1cc(C(=O)NC)c(Nc2cccc(-c3nnn(C)n3)c2OC)c/c1=N\C(=O)C1CC1.Cl NOT MET

Answer whether half-life of [2H]C([2H])([2H])NC(=O)c1cn(COP(=O)(O)O)/c(=N/C(=O)C2CC2)cc1Nc1cccc(-c2nnn(C)n2)c1OC is greater than or equal to 70 h. NOT MET

Test whether the compound [2H]C([2H])([2H])NC(=O)c1cn(COP(=O)([O-])[O-])/c(=N/C(=O)C2CC2)cc1Nc1cccc(-c2nnn(C)n2)c1OC.[Na+].[Na+] records half-life of 70 h or higher. MET

I'd appreciate it if you could say whether [2H]C([2H])([2H])NC(=O)c1cn(COC(=O)c2ccc(COP(=O)(O)O)cc2)/c(=N/C(=O)C2CC2)cc1Nc1cccc(-c2nnn(C)n2)c1OC has half-life at least equal to 70 h. MET

Is half-life for [2H]C([2H])([2H])NC(=O)c1cn(COC(=O)CC(C)(C)c2c(C)cc(C)cc2OP(=O)(O)O)/c(=N/C(=O)C2CC2)cc1Nc1cccc(-c2nnn(C)n2)c1OC at or above 70 h? NOT MET

* * *

experiment: Tmax in Pentagastrine-pretreated Sprague-Dawley rat at 10 mg/kg, po measured for 24 hrs by UPLC-MS/MS analysis; format: ADME, organism-based; settings: in vivo
Please provide measured Tmax for the entries that follow.
Just the number in h, nothing appended.

Entry Cl.[2H]C([2H])([2H])NC(=O)c1cnc(NC(=O)C2CC2)cc1Nc1cccc(-c2nnn(C)n2)c1OC needs its Tmax filled in; supply it. 5.5

Give the reported value of Tmax for this record: [2H]C([2H])([2H])NC(=O)c1cnc(NC(=O)C2CC2)cc1Nc1cccc(-c2nnn(C)n2)c1OC 0.9

* * *

assay: Tmax in Sprague-Dawley rat at 10 mg/kg, po measured for 24 hrs by UPLC-MS/MS analysis; assay type: ADME, organism-based; conditions: in vivo
reported.property: Tmax (h)
Answer format: numeric, h implied, no suffix.

Quick one: give measured Tmax for [2H]C([2H])([2H])NC(=O)c1cnc(NC(=O)C2CC2)cc1Nc1cccc(-c2nnn(C)n2)c1OC 1.1

* * *

assay: Protein binding in human plasma assessed as free fraction; format: ADME, cell-free
reported.property: fraction unbound
API doc: respond with a numeric literal and nothing else, no unit.

Please supply the value of reported fraction unbound for the item [2H]C([2H])([2H])NC(=O)c1cnc(NC(=O)C2CC2)cc1Nc1cccc(-c2nnn(C)n2)c1OC 0.1

* * *

experiment: Efflux ratio of apparent permeability across basal to apical side over apical to basal side in human Caco-2 cells; format: ADME, cell-based
reported.property: efflux ratio
Hey, just send me the number, nothing else.

Name the recorded efflux ratio of the compound listed here: [2H]C([2H])([2H])NC(=O)c1cnc(NC(=O)C2CC2)cc1Nc1cccc(-c2nnn(C)n2)c1OC 8.2

* * *

test: AUC (total) in Pentagastrine-pretreated Sprague-Dawley rat at 10 mg/kg, po measured for 24 hrs by UPLC-MS/MS analysis; type: ADME, organism-based; conditions: in vivo
Kindly supply the reported AUC at 24 h values for the records listed here.
Give the value in µM·h but do not write µM·h after it.

For the molecule [2H]C([2H])([2H])NC(=O)c1cnc(NC(=O)C2CC2)cc1Nc1cccc(-c2nnn(C)n2)c1OC , report AUC at 24 h. 46

Quickly give me recorded AUC at 24 h for Cl.[2H]C([2H])([2H])NC(=O)c1cnc(NC(=O)C2CC2)cc1Nc1cccc(-c2nnn(C)n2)c1OC 53.4

* * *

test: Chemical stability of compound in 0.1 M HCl at pH 1 at 37 degreeC assessed as half life measured for 24 hrs by reversed phase-HPLC analysis; format: physicochemical
For each of the compounds below, state its half-life.

Read off the recorded half-life for [2H]C([2H])([2H])NC(=O)c1cn(COC(=O)c2ccc(OP(=O)(O)O)c(OC)c2)/c(=N/C(=O)C2CC2)cc1Nc1cccc(-c2nnn(C)n2)c1OC > 20.8 days

Name the recorded half-life of the compound listed here: [2H]C([2H])([2H])NC(=O)c1cn(COP(=O)([O-])[O-])/c(=N/C(=O)C2CC2)cc1Nc1cccc(-c2nnn(C)n2)c1OC.[Na+].[Na+] > 20.8 days

Return half-life for the following compound: CNCC(=O)OCc1cccnc1N(C)C(=O)OCn1cc(C(=O)NC)c(Nc2cccc(-c3nnn(C)n3)c2OC)c/c1=N\C(=O)C1CC1.Cl 13.9 days

Please give measured half-life of the following entry: [2H]C([2H])([2H])NC(=O)c1cn(COP(=O)(O)O)/c(=N/C(=O)C2CC2)cc1Nc1cccc(-c2nnn(C)n2)c1OC > 20.8 days

Output half-life of [2H]C([2H])([2H])NC(=O)c1cn(COC(=O)c2ccc(COP(=O)(O)O)cc2)/c(=N/C(=O)C2CC2)cc1Nc1cccc(-c2nnn(C)n2)c1OC 13.9 days

Quick one: give measured half-life for [2H]C([2H])([2H])NC(=O)c1cn(COC(=O)CC(C)(C)c2c(C)cc(C)cc2OP(=O)(O)O)/c(=N/C(=O)C2CC2)cc1Nc1cccc(-c2nnn(C)n2)c1OC 2.67 days
